Molecular target: T1, mouse leptin receptor-Fc chimera (mouse; human, UniProt P48356 22-839)
T1 construct: extracellular domain; Bought from R&D Systems; Captured on a protein G sensor chip through its Fc; also called ObR-Fc; chimera leptin receptor; not shown: human Fc fragment, printed as 'human protein G Fc fragment'
T1 sequence (looked up): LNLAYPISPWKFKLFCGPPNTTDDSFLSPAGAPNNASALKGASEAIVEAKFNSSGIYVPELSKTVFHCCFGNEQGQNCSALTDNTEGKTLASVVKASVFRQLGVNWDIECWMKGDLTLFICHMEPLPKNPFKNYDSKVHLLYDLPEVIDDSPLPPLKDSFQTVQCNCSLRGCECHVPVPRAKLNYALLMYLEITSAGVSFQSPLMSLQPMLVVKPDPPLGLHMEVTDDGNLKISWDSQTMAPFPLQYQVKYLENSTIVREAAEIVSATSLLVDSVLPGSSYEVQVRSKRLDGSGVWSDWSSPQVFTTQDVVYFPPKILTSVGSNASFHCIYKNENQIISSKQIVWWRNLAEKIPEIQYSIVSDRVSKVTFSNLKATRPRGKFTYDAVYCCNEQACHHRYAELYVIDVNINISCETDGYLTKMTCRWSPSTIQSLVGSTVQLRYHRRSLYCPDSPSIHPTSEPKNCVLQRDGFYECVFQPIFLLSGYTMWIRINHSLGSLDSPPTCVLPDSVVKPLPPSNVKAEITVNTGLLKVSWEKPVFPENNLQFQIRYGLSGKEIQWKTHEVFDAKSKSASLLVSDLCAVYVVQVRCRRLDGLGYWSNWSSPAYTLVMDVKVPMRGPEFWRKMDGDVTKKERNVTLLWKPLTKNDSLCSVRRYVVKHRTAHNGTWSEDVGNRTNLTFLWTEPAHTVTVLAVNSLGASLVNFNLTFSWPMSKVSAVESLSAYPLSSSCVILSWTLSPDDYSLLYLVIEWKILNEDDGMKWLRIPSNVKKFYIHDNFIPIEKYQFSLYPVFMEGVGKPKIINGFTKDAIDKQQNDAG
Assay: SPR (Biacore 3000), ObR-Fc captured on protein G chip, 1:1 model
Below, each of the binders is paired with its reported kon value.
Express it in M⁻¹ s⁻¹; write the number only.

Examples from the recorded data:
Mouse leptin (ligand, UniProt P41160 22-167, looked up, Also tested as a non-covalent 1:1 mixture with free Pluronic P85 ('Leptin + P85'); Those rows use this molecule and name the mixture under assay; The preparation held monomer and dimer on SDS-PAGE; also called native leptin; mu-leptin) VPIQKVQDDTKTLIKTIVTRINDISHTQSVSAKQRVTGLDFIPGLHPILSLSKMDQTLAVYQQVLTSLPSQNVLQIANDLENLRDLLHLLAFSKSCSLPQTSGLQKPESLDGVLEASLYSTEVVALSRLQGSLQDILQQLDVSPEC    2.09e+06
Lep-(ss)-P85(1) (ligand, mouse, UniProt P41160 22-167, looked up, Pluronic P85 chains on lysine amino groups through the DSP (disulfide) linker; highly modified; positions not determined, Mixture of unmodified leptin and leptin with 1 to several P85 chains) VPIQKVQDDTKTLIKTIVTRINDISHTQSVSAKQRVTGLDFIPGLHPILSLSKMDQTLAVYQQVLTSLPSQNVLQIANDLENLRDLLHLLAFSKSCSLPQTSGLQKPESLDGVLEASLYSTEVVALSRLQGSLQDILQQLDVSPEC    12000

Okay, now this binder:
Look up kon: Lep-(ss)-P85(2.1) reduced (ligand, mouse, UniProt P41160 22-167, looked up, Pluronic P85 chains on lysine amino groups through the DSP linker, partly cleaved by 6 mM L-glutathione, Lep-(ss)-P85(2.1) dialysed against 6 mM L-glutathione in PBS with 20% ethanol; also called reduced form of Lep-(ss)-P85(2.1)) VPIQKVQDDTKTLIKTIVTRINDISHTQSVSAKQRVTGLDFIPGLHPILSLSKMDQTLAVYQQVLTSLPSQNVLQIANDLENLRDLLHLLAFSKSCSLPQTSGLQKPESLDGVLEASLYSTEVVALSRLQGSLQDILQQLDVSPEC
195000
